reported-endpoint: IC50

Tested system Platelet-derived growth factor receptor alpha (Homo sapiens, UniProt P16234); IC50 recorded for Cc1ccc(C(=O)Nc2ccc3c(c2)C(F)(F)C[C@@H]3N2CCN(C)CC2)cc1C#Cc1cnc2cccnn12 was < 10 nM

* * *

- assay-details: Half life in ICR mouse at 15 mg/kg, po measured upto 24 hrs by LC/MS/MS analysis
- Assay type: ADME, organism-based
- experimental-setup: in vivo
reported-endpoint: half-life (h)
Form entry: value (h) — number only.

Sample Cc1ccc(C(=O)Nc2ccc(CN3CCN(C)CC3)c(C(F)(F)F)c2)cc1C#Cc1cnc2cccnn12 ; half-life observed: 2.84

Given item Cc1ccc(C(=O)Nc2ccc3c(c2)C(F)(F)C[C@@H]3N2CCN(C)CC2)cc1C#Cc1cnc2cccnn12 , the value recorded as its half-life is 4.61
